Answer each item with its documented Neutralization IC50, H3-WI05.
Biological target: HA of A/Wisconsin/67/05 (H3N2) (influenza A virus)
Test: cell-based or functional assay
One number for each entry, in µg/mL.

>  <Binder>
Antibody 6 (antibody, V domains shown) VH: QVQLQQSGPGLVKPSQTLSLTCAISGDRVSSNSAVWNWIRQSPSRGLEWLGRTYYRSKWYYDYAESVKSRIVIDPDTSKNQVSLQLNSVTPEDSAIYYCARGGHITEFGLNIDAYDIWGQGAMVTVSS VL: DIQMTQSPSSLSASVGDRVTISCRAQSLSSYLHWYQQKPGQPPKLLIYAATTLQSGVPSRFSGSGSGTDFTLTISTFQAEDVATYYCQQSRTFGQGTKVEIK

>  <Measure Unit>
µg/mL

>  <Neutralization IC50, H3-WI05>
6.76

$$$$
>  <Binder>
Antibody 5 (antibody, V domains shown) VH: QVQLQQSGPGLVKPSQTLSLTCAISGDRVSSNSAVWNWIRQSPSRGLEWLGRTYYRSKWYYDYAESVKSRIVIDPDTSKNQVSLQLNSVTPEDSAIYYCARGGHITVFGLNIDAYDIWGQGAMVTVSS VL: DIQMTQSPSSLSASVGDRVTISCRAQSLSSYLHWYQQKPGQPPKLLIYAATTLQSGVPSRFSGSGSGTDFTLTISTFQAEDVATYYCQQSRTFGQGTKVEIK

>  <Measure Unit>
µg/mL

>  <Neutralization IC50, H3-WI05>
2.83

$$$$
>  <Binder>
Antibody 3 (antibody, V domains shown) VH: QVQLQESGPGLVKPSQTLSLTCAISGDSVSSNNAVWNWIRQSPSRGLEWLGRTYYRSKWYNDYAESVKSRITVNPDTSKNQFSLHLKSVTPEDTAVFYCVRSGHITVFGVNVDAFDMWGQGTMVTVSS VL: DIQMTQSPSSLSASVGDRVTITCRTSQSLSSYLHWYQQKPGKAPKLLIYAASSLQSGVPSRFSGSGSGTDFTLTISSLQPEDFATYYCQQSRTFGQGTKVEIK

>  <Measure Unit>
µg/mL

>  <Neutralization IC50, H3-WI05>
2.44

$$$$

Consider Antibody 10 (antibody, V domains shown) VH: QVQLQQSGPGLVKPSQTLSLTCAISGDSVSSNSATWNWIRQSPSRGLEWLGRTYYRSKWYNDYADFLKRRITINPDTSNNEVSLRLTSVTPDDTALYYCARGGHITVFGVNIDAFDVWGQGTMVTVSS VL: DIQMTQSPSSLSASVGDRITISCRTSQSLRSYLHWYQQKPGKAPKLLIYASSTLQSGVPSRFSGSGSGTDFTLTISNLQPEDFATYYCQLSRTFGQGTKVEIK . Its measured Neutralization IC50, H3-WI05 is 4.46
